target: INaL v1.6 (late sodium current, HEK-293 cells expressing recombinant sodium channels) (Homo sapiens, UniProt Q9UQD0); construct: expressed in transfected cells; host or cells: HEK-293; assay: Inhibition of ATX-II evoked Nav late current (INaL), PatchXpress electrophysiology; assay type: cell-based; settings: HEK293, compound at 1 μM, late current evoked by ATX-II 300 nM
Sequence (Q9UQD0 whole entry): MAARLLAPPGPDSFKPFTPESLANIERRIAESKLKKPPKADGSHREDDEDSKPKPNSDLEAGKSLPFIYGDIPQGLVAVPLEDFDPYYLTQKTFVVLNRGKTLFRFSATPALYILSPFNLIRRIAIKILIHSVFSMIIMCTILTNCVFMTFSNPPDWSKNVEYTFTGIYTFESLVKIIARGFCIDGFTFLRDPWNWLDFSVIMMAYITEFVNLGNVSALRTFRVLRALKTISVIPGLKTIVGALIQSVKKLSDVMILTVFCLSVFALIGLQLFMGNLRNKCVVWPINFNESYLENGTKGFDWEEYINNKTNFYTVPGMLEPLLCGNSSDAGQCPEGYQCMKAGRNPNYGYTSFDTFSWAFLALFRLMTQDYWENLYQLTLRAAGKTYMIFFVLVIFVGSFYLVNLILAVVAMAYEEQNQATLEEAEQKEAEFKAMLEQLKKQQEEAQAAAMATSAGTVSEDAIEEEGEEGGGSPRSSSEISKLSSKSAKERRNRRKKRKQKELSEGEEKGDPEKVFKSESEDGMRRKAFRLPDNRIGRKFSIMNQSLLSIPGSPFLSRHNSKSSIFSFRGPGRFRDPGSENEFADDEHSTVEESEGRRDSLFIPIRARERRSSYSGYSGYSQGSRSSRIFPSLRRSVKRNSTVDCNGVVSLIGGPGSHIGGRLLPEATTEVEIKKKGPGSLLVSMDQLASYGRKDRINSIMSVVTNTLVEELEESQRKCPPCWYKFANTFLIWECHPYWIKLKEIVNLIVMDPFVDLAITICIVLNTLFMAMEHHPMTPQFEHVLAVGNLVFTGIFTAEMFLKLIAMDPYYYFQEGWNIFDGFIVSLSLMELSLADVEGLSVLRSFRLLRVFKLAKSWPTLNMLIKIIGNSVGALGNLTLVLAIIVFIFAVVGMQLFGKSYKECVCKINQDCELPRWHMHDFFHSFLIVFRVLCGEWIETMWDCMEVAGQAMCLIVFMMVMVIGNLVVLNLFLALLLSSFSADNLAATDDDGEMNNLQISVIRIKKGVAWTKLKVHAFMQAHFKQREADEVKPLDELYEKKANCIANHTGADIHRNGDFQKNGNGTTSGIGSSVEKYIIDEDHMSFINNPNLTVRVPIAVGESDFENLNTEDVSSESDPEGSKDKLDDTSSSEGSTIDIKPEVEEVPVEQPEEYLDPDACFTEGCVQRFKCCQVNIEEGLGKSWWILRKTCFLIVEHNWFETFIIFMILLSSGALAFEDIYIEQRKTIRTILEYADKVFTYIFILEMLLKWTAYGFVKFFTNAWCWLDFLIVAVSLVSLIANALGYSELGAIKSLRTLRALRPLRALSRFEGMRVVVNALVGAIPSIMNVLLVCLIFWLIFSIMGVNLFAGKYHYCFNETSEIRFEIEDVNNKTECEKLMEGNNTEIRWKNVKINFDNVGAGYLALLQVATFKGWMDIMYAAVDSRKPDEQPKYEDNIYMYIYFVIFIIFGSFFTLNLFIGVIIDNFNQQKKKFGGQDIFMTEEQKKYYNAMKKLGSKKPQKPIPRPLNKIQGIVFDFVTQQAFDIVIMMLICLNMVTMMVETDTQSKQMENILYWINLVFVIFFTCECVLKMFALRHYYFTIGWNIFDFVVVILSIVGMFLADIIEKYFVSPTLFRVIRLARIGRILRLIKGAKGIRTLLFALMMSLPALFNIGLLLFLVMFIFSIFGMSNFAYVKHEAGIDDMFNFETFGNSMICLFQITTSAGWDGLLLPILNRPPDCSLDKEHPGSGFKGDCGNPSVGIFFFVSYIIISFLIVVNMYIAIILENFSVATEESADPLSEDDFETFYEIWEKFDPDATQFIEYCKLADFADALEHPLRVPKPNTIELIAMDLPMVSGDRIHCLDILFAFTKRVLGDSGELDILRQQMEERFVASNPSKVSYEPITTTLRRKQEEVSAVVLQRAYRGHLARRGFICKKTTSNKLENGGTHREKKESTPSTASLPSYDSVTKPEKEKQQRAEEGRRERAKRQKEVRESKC
RECORDED_ENDPOINT: inhibition at 1 µM

Items follow; give inhibition at 1 µM for each.
1. Cc1cc2nnc(C(F)(F)F)n2nc1-c1ccc(OC(C)(C)C(F)(F)F)nc1 [Compound 51]
2. Cc1c(-c2cnc(O[C@@H](C)C(F)(F)F)c(F)c2)ncc2nnc(C(F)(F)F)n12 [Compound 38]
3. C[C@H](Oc1ncc(-c2ccc3nnc(C(F)F)n3n2)cc1F)C(F)(F)F [Compound 15]

Output line:
["50 to 75%", "50 to 75%", "> 75%"]

Items follow; give inhibition at 1 µM for each.
1. CC(C)(Oc1ncc(-c2ccc3nnc(C4CC4(F)F)n3n2)cc1F)C(F)(F)F (centres unmarked) [Compound 12]
2. Cc1cc2nnc(C(F)(F)F)n2nc1-c1ccc(O[C@@H](C)C(F)(F)F)nc1 [Compound 48]
3. Fc1cc(-c2cn3c(C(F)(F)F)nnc3cn2)cnc1OCC1CC1(F)F (single isomer, unassigned) [28 (Isomer 1)]
4. CC(C)(Oc1ncc(-c2cn3c(C4CC(F)(F)C4)nnc3cn2)cc1F)C(F)(F)F [Compound 8]

Output line:
> 75%
> 75%
50 to 75%
50 to 75%

Items follow; give inhibition at 1 µM for each.
1. Fc1cc(-c2cn3c(C(F)F)nnc3cn2)cnc1OC1(C(F)(F)F)CCC1 [Compound 9]
2. Cc1cc2nnc(C(F)(F)F)n2nc1-c1ccc(O[C@H](C)C(F)(F)F)nc1 [Compound 49]
3. CC(C)(Oc1ncc(-c2ccc3nnc(C4CC(F)(F)C4)n3n2)cc1F)C(F)(F)F [Compound 14]
4. C[C@H](Oc1ncc(-c2cn3c(C4CC4(F)F)nnc3cn2)cc1F)C(F)(F)F (single isomer, unassigned) [18 (Isomer 1)]
5. CC(C)(Oc1ccc(-c2nn3c(C(F)(F)F)nnc3cc2Cl)cn1)C(F)(F)F [Compound 50]
6. CC(C)(Oc1ncc(-c2cn3c(C4CC4(F)F)nnc3cn2)cc1F)C(F)(F)F (centres unmarked) [Compound 10]
7. C[C@@H](Oc1ncc(-c2ccc3nnc(C(F)F)n3n2)cc1F)C(F)(F)F [Compound 17]

Output line:
1: > 75%; 2: 50 to 75%; 3: > 75%; 4: < 50%; 5: > 75%; 6: 50 to 75%; 7: > 75%
